- TARGET UNDER TEST: GST-SBP-SLBP (stem-loop binding protein) (Homo sapiens, UniProt Q14493 1-270)
- PROTOCOL DESCRIPTION: targeted RNA Bind-n-Seq; RBNS binding buffer: 25 mM Tris pH 7.5, 150 mM KCl, 3 mM MgCl2, 0.1% Tween, 0.5 mg/mL BSA, 1 mM DTT; 27 nM protein, 750 pM RNA pool; temperature not stated; high values mean tight binding
- PARTICULARS: protein: recombinant; tags: N-terminal GST and SBP (pGEX6P1-SBP); structured_RNA
Over roughly 11,000 sequences, “log2 fold change” has its median near 0.00022; the highest 2% begin near 0.34. The list shows a part of the results.
Please go through the items and note down their binding signal.
Numbers only, in log2 fold change.

Record binding signal per entry; entries follow.
1. GGUCACGUCUCAAUCAACUCCUAAGAGGGGGGGAAAACCCCUUUACCCUCGUCCUCAACAGCUCGCAGUCAAG
2. GGUCACGUCUCAAUCAACUCAAUAGAGGGGGGGAAAACCCCUUUACCCUCCCAAUCAACAGCUCGCAGUCAAG
3. GGUCACGUCUCAAUCAACUCUCCAGAGGGGGGGAAAACCCCUUUGCCCUCCACAUCAACAGCUCGCAGUCAAG
4. GGUCACGUCUCAAUCAACUCCUUAGAGGGGGGGAAAACCCCUUUGCCCUCGAAUUCAACAGCUCGCAGUCAAG

Data returned:
1: 0.382; 2: 0.325; 3: 0.318; 4: 0.379

* * *

- TARGET UNDER TEST: GST-SBP-SLBP (stem-loop binding protein) (Homo sapiens, UniProt Q14493 1-270)
- PROTOCOL DESCRIPTION: targeted RNA Bind-n-Seq; RBNS binding buffer: 25 mM Tris pH 7.5, 150 mM KCl, 3 mM MgCl2, 0.1% Tween, 0.5 mg/mL BSA, 1 mM DTT; 27 nM protein, 750 pM RNA pool; temperature not stated; high values mean tight binding
- PARTICULARS: protein: recombinant; tags: N-terminal GST and SBP (pGEX6P1-SBP); structured_RNA
In all, about 11,000 sequences were measured (“log2 fold change”: median about 0.00022, highest 2% from about 0.34 on). Some of the results follow.
MEASURED METRIC: binding signal (log2 fold change)
One number for each entry, in log2 fold change.

Here are 3 sequences together with their reported answers.
Data request: I am curious: what binding signal value has been reported for `GGUCACGUCUCAAUCAACUCACACGAGGGGGGGAAAACCCCUUUGCCCUCAACAUCAACAGCUCGCAGUCAAG` ?
Data returned: 0.529

Data request: And then `GGUCACGUCUCAAUCAACUCAAUAGAGGGGGGGAAAACCCCUUUACCCUCCAUAUCAACAGCUCGCAGUCAAG` , what is it?
Data returned: 0.379

Data request: And then `GGUCACGUCUCAAUCAACUCUUUAGAGGGGGGGAAAACCCCUUUGCCCUCAACUUCAACAGCUCGCAGUCAAG` , what is it?
Data returned: 0.318

Continue with the sequence presented below.
Data request: I am curious: what binding signal value has been reported for `GGUCACGUCUCAAUCAACUCUAUAGAGGGGGGGAAAACCCCUUUGCCCUCGAAUUCAACAGCUCGCAGUCAAG` ?
Data returned: 0.377
